- Experimental Target: UniProt:P11309
- Sequence (P11309 whole entry): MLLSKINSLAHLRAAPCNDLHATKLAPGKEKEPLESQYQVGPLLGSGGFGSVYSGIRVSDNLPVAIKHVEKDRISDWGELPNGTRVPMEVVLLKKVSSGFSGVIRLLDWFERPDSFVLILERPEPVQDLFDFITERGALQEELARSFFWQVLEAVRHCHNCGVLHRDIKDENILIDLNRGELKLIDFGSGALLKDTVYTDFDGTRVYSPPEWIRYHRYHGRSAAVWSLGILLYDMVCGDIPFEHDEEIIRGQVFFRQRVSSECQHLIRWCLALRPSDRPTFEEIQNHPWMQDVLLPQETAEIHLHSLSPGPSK
- Run Description: Pim 1 AlphaScreen assay (high ATP)
- Type: biochemical
- Recorded Conditions: read-out: Pim1 IC50
Experimental Endpoint: IC50 (nM)

Here's what some known entries look like.
Compound	IC50 / nM
N[C@@H]1C[C@H](c2ccncc2NC(=O)c2ccnc(-c3c(F)cccc3F)n2)O[C@@H]2CCCC[C@]12O [Example 237]	3.37
O=C(Nc1cnccc1[C@@H]1C[C@H](O)[C@@H](O)C2(CC2)O1)c1ccc(F)c(-c2c(F)cccc2F)n1 [Example 250]	20.1

P = O=C(Nc1cnccc1[C@H]1C[C@@H](O)[C@H](O)C2(CC2)O1)c1ccc(F)c(-c2c(F)cccc2F)n1 [Example 253]
Q = CC(C)C1OC(c2ccncc2NC(=O)c2nc(-c3c(F)cccc3F)ncc2N)C[C@H](N)[C@H]1O (stereo in doubt) [Example 273]
R = COc1cc(F)c(-c2nc(C(=O)Nc3cnccc3[C@H]3C[C@@H](N)[C@H](O)[C@@H](C(C)(C)C)O3)ccc2F)c(F)c1 [Example 269]
S = C[C@]1(O)[C@H](N)C[C@H](c2ccncc2NC(=O)c2ccc(F)c(-c3c(F)cccc3F)n2)OC12CC2 [Example 289]
T = CC(C)[C@H]1O[C@@H](c2ccncc2NC(=O)c2nc(-c3c(F)cccc3F)ncc2N)C[C@@H](N)[C@@H]1O [Example 272]
Challenge: # sort list by recorded IC50, greatest to least Returns: the labels listed in the requested order.
Response given: Q, S, P, T, R
(Q: 23.1 nM, S: 2.5 nM, P: 0.99 nM, T: 0.66 nM, R: 0.03 nM)
